assay: Solubility and stability in 40% PG/10% ethanol/50% normal saline with hydrotropic agents; assay type: physicochemical; conditions: aqueous with cosolvent or surfactant or cyclodextrin, 40% PG/10% EtOH/4% benzoic acid/1% benzyl alcohol in normal saline; read-out: Discodermolide Solubility
Observable: solubility (µg/mL)
Your answer should be a plain number; it is taken to be in µg/mL.

Query: Please give the measured solubility for this molecule: C=C/C=C\C(C)[C@H](OC(N)=O)[C@@H](C)[C@H](O)[C@@H](C)C/C(C)=C\C(C)C(O)[C@@H](C)/C=C\[C@@H](O)C[C@@H]1OC(=O)[C@H](C)C(O)C1C (single isomer, unassigned; (+)) [discodermolide, (+)-Discodermolide]
Reply: 2200
